// values below are reported GI50
Tested on: M14
Assay: NCI tumour cell line growth inhibition, 48 h
The source made the active and inactive calls. Cut-off read from the data, not from the text of the source: active = GI50 up to about 1.1 µM and inactive = higher.

Compound	Measured On	GI50
[O-][S+](Nc1ccccc1)c1ccccc1Oc1ccccc1 (stereo not given)	M14	24.5 µM (inactive)
Cc1ccc(C)c(NC(=O)C(=O)C2C(=O)C3=C(CC2(C)C)Nc2ccccc2S3)c1 (stereo not given)	M14	> 100 µM (inactive)
O=c1[nH]c(=O)n(C2CC(O)C(CO)O2)cc1/C=C/Br (stereo not given)	M14	> 100 µM (inactive)
CC(C)(C)OC1=C(OC(C)(C)C)C(O)(c2ccccc2)C1=O (stereo not given)	M14	> 100 µM (inactive)
Brc1c(C#CCC(c2ccccc2)(c2ccccc2)c2ccccc2)ccc(C#CCC(c2ccccc2)(c2ccccc2)c2ccccc2)c1Br	M14	> 100 µM (inactive)

====

GI50: recorded values
Tested on: SF-539
Experiment: NCI tumour cell line growth inhibition, 48 h
Active and inactive are the calls of the source. Rule as the data show it: active = GI50 up to about 1.1 µM and inactive = higher.
Parameter Measured: GI50

Molecule	Result
O=C(CSc1nnc(Cc2ccccc2)o1)Nc1ccccc1	> 100 µM (inactive)
CCOC(=O)C1=C(O)C(=O)c2c(OC)ccc(OC)c2C1=O	> 100 µM (inactive)
C[N+](C)(C)C(C1=CCCC1=O)c1ccccc1 (configuration not stated)	54.5 µM (inactive)
C/C(=N\NC(N)=S)c1ccc2c(c1)OCO2	> 100 µM (inactive)
CC1=NN(C(=O)c2ccc(Cl)cc2)C(=O)/C1=C/c1ccco1	> 100 µM (inactive)
CC1=C(C(=O)OCCc2ccc([N+](=O)[O-])cc2)C(c2ccccc2C(F)(F)F)C(C(=O)OC(C)C)=C(C)N1 (configuration not stated)	3.82 µM (inactive)
Cc1ccc(NC(=O)CC2C(=O)Nc3ccccc3S2(=O)=O)c(C)c1 (configuration not stated)	15.5 µM (inactive)
COc1ccc(-c2c(C#N)c(NC(=S)NC(=O)c3ccccc3)nc3c2CCCC3)cc1OC	30.2 µM (inactive)
CC1=NN(c2cccc(Cl)c2)C2(SCC(=O)N2c2nc3ccccc3s2)/C1=C\c1ccccc1 (configuration not stated)	26.4 µM (inactive)
C=CCOCn1ccc(=O)[nH]c1=O	> 100 µM (inactive)
Cc1c(-c2nc(N)nc(C3CC3)c2C)nc(N)nc1C1CC1	> 100 µM (inactive)
N#CC12C(=O)NC(=O)C1(C#N)C1C=CC2CC1 (configuration not stated)	> 100 µM (inactive)
CC1(C)[C@@H]2CC[C@@]1(C)C1(S[S+]1[O-])C21Cc2ccccc2C1 (some centres not stated)	24.5 µM (inactive)
O=C1Oc2ccccc2C(=O)/C1=C/N1C(=O)N/C(=C\c2cccc(O)c2)C1=O	99.5 µM (inactive)
C/C(CC(=O)Nc1cccc(Cl)c1C)=N\NC(N)=S	> 100 µM (inactive)
Cc1c2cc[n+](C)cc2c(C)c2c1[nH]c1ccc(OCC(F)(F)F)cc12	1.25 µM (inactive)
CCOC(=O)/C(O)=C1\C(=O)N(C)C(=O)C1c1ccc(OC)c(OC)c1 (configuration not stated)	> 100 µM (inactive)
CCCCCCCCCCCCC1N=C(N)N2CCCC2=C1C(=O)OC (configuration not stated)	5.41 µM (inactive)
COc1ccc(C(=O)/C=C/c2ccc3c(c2)OCO3)c(OCc2ccccc2)c1	32.7 µM (inactive)
N#CI1OC(=O)c2ccccc21	> 100 µM (inactive)
COc1ccc(/C=C/c2cnnc3ccccc23)cc1OC	> 10 µM (inactive)
CCCCCCCCCCCC[C@@H](O)[C@H]1CC[C@H]([C@H]2CC[C@H]([C@H](O)CC[C@H](O)CCCCCCCC3=C[C@H](C)OC3=O)O2)O1	1.68 µM (inactive)

====

Each item that follows carries a reported GI50.
Tested on: HL-60
Experiment: NCI tumour cell line growth inhibition, 48 h
Calls of active or inactive are those of the source. Cut-off read from the data, not from the text of the source: active = GI50 up to about 1.1 µM and inactive = higher.

Compound	Measured On	GI50
Cc1cc(C(=O)CCCCOc2ccc(C3=NCCO3)cc2)c(C)n1C	HL-60	0.0883 µM (active)
COc1ccc(N2CCOCC2)cc1	HL-60	> 100 µM (inactive)
C/C(CCc1ccccc1)=N\NC(N)=S	HL-60	> 100 µM (inactive)
O=C1/C(=C/c2ccco2)N=C(c2ccccc2)N1c1cc2cc(Sc3ccccc3)ccc2[nH]1	HL-60	0.214 µM (active)
N#C/C(=C\c1ccccc1)C(NO)Nc1ccccc1 (stereo unspecified)	HL-60	> 100 µM (inactive)
CC1=NN(c2ccccc2Cl)C2(C1)C(Cl)C(=O)N2c1nc2ccccc2s1 (stereo unspecified)	HL-60	25.5 µM (inactive)

====

System: DMS-114
Assay: NCI tumour cell line growth inhibition, 48 h
Calls of active or inactive are those of the source. Cut-off read from the data, not from the text of the source: active = GI50 up to about 1.1 µM and inactive = higher.
Catalogue of compounds with associated GI50
Parameter Measured: GI50

Compound	Measured On	Result
Cc1c2cc[n+](C)cc2c(C)c2c1[nH]c1ccc(OCC(F)(F)F)cc12	DMS-114	1.42 µM (inactive)
CCCCCCCCCCCCCS(=O)(=O)O	DMS-114	> 100 µM (inactive)
O=C(Nc1ccc(Cl)c(Cl)c1)C(=O)C(C(=O)c1ccccc1-c1ccccc1)C1OC(=O)c2ccccc21 (stereo not given)	DMS-114	12.1 µM (inactive)
O=C1Cc2ccccc2CCc2ccccc21	DMS-114	47 µM (inactive)
COc1cc(CCc2ccc(OC(C)=O)cc2)cc(OC)c1OC	DMS-114	55 µM (inactive)
CC1=NN(C(=O)c2ccc(Cl)cc2)C(=O)/C1=C/c1ccco1	DMS-114	> 100 µM (inactive)
CC1C[C@H](OC(N)=O)C(C)CC1=O (stereo not given in full)	DMS-114	> 100 µM (inactive)
COC1C2c3ccccc3C(C#N)(Cc3ccc4c(c32)OCO4)N1C(=O)c1ccccc1 (stereo not given)	DMS-114	19.6 µM (inactive)
Cc1cc(C)nc(NS(=O)(=O)c2ccc(Nc3c4ccccc4nc4c(C(=O)Nc5ccc(S(=O)(=O)N=C(N)N)cc5)ccc(Cl)c34)cc2)n1	DMS-114	21.7 µM (inactive)
COC(=O)C1=C(C(=O)OC)C2(C3C(SC)=CC(C)(C)CC3S1)N(Cc1ccccc1)CCN2Cc1ccccc1 (stereo not given)	DMS-114	> 100 µM (inactive)

====

Test system: OVCAR-8
Assay: NCI tumour cell line growth inhibition, 48 h
Calls of active or inactive are those of the source. No stated cut-off is given here; in the data, active = GI50 up to about 1.1 µM and inactive = higher.
Parameter Measured: GI50

Compound	Parameter Measured	Result
COCCOCOC(C)(C)[C@H](CCO)O[Si](c1ccccc1)(c1ccccc1)C(C)(C)C	GI50	10.4 µM (inactive)
O=C1C(O)=C(CCCCCCCCC2CCCCC2)C(=O)c2ccccc21	GI50	8.67 µM (inactive)
C=C1CCC2(C(C)=O)COC1(C)O2 (stereo not given)	GI50	> 100 µM (inactive)
O=c1cc2ccccc2nn1Cc1cccc(Cl)c1	GI50	73.3 µM (inactive)
Cc1ccc(S(=O)(=O)C(CC(=O)N2CCCC2)C(=O)c2ccccc2)cc1 (stereo not given)	GI50	> 100 µM (inactive)
CSc1ncc2c(C#N)c3n(C)c4ccccc4n3c(=O)c2n1	GI50	> 100 µM (inactive)
CCN(CC)CCNc1ccc(/N=N/c2ccc(S(N)(=O)=O)cc2)c2ccccc12	GI50	5.82 µM (inactive)
COc1cc(C(SCc2ccccc2)SCc2ccccc2)ccc1O	GI50	> 10 µM (inactive)
Cc1cc(C)nc(NS(=O)(=O)c2ccc(Nc3c4ccccc4nc4c(C(=O)Nc5ccc(S(=O)(=O)N=C(N)N)cc5)ccc(Cl)c34)cc2)n1	GI50	17.5 µM (inactive)
O=C(c1c(O)cc(O)cc1O)C1Cc2ccccc21 (stereo not given)	GI50	39.2 µM (inactive)

====

System: MDA-MB-231
Test: NCI tumour cell line growth inhibition, 48 h
Calls of active or inactive are those of the source. Rule as the data show it: active = GI50 up to about 1.1 µM and inactive = higher.

Molecule	Measured On	GI50
Brc1ccccc1/C=C\C1(c2ccccc2)OCCO1	MDA-MB-231	9.27 µM (inactive)
COc1cc(C(SCc2ccccc2)SCc2ccccc2)ccc1O	MDA-MB-231	> 10 µM (inactive)
C=CCOCn1ccc(=O)[nH]c1=O	MDA-MB-231	> 100 µM (inactive)
CCN(CC)CCN1C(=O)C(=O)N(c2cccc3ccccc23)C1=O	MDA-MB-231	> 10 µM (inactive)
COC(=O)c1cc(C)ccc1CC(Cc1ccc(C)cc1)C(=O)OC (configuration not stated)	MDA-MB-231	31.9 µM (inactive)
CNC1NC(=O)c2ccccc2N1Cc1ccc(F)cc1 (configuration not stated)	MDA-MB-231	> 100 µM (inactive)
CCOC(=O)/C(C#N)=C/Nc1c(C)n(C)n(-c2ccccc2)c1=O	MDA-MB-231	> 100 µM (inactive)
CCC1C(=O)C(O)[C@H]2[C@@H]3C(O)CC4=CC(=O)CC[C@]4(C)[C@H]3CC[C@]12C (some centres not stated)	MDA-MB-231	> 50 µM (inactive)
O=S(=O)(O)c1ccc(O)c2ncc(Cl)cc12	MDA-MB-231	> 100 µM (inactive)
O=c1nc2n(cc1/C=C\Br)C1CC(O)C(CO2)O1 (configuration not stated)	MDA-MB-231	> 100 µM (inactive)
CC(=O)Nc1ccc2nc(-c3ccccn3)c(-c3ccccn3)nc2c1	MDA-MB-231	> 100 µM (inactive)
Cc1n[nH]c(=O)n1/N=C/c1ccc([N+](=O)[O-])cc1	MDA-MB-231	> 100 µM (inactive)
COC(=O)CC1C(COC(C)=O)OC(n2cc(C)c(=O)[nH]c2=O)C1OC(C)=O (configuration not stated)	MDA-MB-231	> 100 µM (inactive)
CCOC(=O)/C=C(/C(=O)OCC)n1ccc(=O)n(Cc2cn(COCCOC(C)=O)nn2)c1=O	MDA-MB-231	28.8 µM (inactive)
O=C1/C(=C/c2ccc(O)cc2)Oc2ccccc21	MDA-MB-231	> 100 µM (inactive)
Oc1cc(-c2ccccc2)nc2cc3c(cc12)OCO3	MDA-MB-231	85.5 µM (inactive)
CCOC(=O)C12C3CCC1C2C(=O)C3 (configuration not stated)	MDA-MB-231	> 100 µM (inactive)
C[C@@H]1C[C@@H](O)[C@]2(O)O[C@@H]3C[C@@]4(C=O)[C@@H](CC[C@@H]5[C@@H]4CC[C@]4(C)[C@@H](C6=CC(=O)OC6)CC[C@]54O)C[C@H]3O[C@@H]2O1	MDA-MB-231	0.0153 µM (active)
CC1=C([S+]([O-])c2ccc(C)cc2)CCC2(CCCCO2)O1 (configuration not stated)	MDA-MB-231	> 100 µM (inactive)
COc1c2c(c3c(c1CCC(=O)O)OC(C)(C)C=C3)OC(C)(C)C=C2	MDA-MB-231	> 100 µM (inactive)
CCCCCC(=O)n1[nH]c(=O)n(-c2ccc(OC)cc2)c1=O	MDA-MB-231	> 100 µM (inactive)
CC(=O)OCCn1c(Cc2ccc(Cl)cc2)nn(C(C)=O)c1=O	MDA-MB-231	> 100 µM (inactive)
